System: diaphorase
assay remarks: fluorescently labeled diaphorase binding to peptide array with or without excess FAD
condition: ratio of binding without FAD to binding with FAD, 10 micromolar diaphorase
measurement label: 10 microM noFAD/FAD

>>> measurement("WLDLGVFPYQHLGSG [array peptide with C-terminal GSG linker]")
0.7647

P: YRLNLKHPVGGSG [array peptide with C-terminal GSG linker]
Q: EAVQKLLFSGSG [array peptide with C-terminal GSG linker]
Query: Please compare: P and Q . Report which one has the smaller 10 microM noFAD/FAD value. The response must carry the label of the picked entry.
Result: Q

A: YRFAQYKGQKDGSG [array peptide with C-terminal GSG linker]
B: EGYANKLLALFSGSG [array peptide with C-terminal GSG linker]
Query: Between these two entries, A and B , state which has the higher 10 microM noFAD/FAD. State your choice using its label.
Result: A

a: YNRNAKSSGGSG [array peptide with C-terminal GSG linker]
b: ELFGALFKGGSG [array peptide with C-terminal GSG linker]
c: RSHPKHNVGSG [array peptide with C-terminal GSG linker]
d: EDEGLSKFEGGSG [array peptide with C-terminal GSG linker]
e: NVSDLSQFYLSGSG [array peptide with C-terminal GSG linker]
Query: Sort these sequences on 10 microM noFAD/FAD so the largest reading comes first. Please list each label once, in the requested order.
Result: a, c, d, b, e

A: RQYQKHSYAKFSGSG [array peptide with C-terminal GSG linker]
B: LKQLFLEGGSG [array peptide with C-terminal GSG linker]
C: RNWYGGSG [array peptide with C-terminal GSG linker]
D: DLDKAFGGSG [array peptide with C-terminal GSG linker]
Query: Sort ascending by 10 microM noFAD/FAD. Thanks in advance for listing the labels in the requested order.
Result: B, D, C, A
